- test.description: Dissolution test of poorly-soluble substances using 2nd fluid for disintegration test (pH 6.8) of the Japanese Pharmacopoeia
- Assay type: physicochemical
- condition.details: 2nd fluid for disintegration test; elution time 30 min
Assign classes using reported Dissolved amount values and the ranges low interval = under 700 µg/mL, middle interval = from 700 µg/mL up to 6000 µg/mL, high interval = 6000 µg/mL and over, please.

{"molecule": "CC(C)(Sc1cc(C(C)(C)C)c(O)c(C(C)(C)C)c1)Sc1cc(C(C)(C)C)c(O)c(C(C)(C)C)c1 [Comparative Example 5-3, Probucol]", "label.value": "low interval"}
{"molecule": "CCn1cc(C(=O)O)c(=O)c2cc(F)c(N3CCNCC3)cc21 [compound 27, Norfloxacin]", "label.value": "middle interval"}
{"molecule": "O=[N+]([O-])O[C@H]1CO[C@H]2[C@@H]1OC[C@H]2O[N+](=O)[O-] [compound 30, Isosorbide Dinitrate]", "label.value": "high interval"}
{"molecule": "COc1ccc2c(c1)c(CC(=O)O)c(C)n2C(=O)c1ccc(Cl)cc1 [compound 20, Indomethacin]", "label.value": "middle interval"}
{"molecule": "Cn1c(=O)c2[nH]cnc2n(C)c1=O [Comparative Example 15, Theophylline]", "label.value": "high interval"}
{"molecule": "CC(=O)SC[C@@H](C)C(=O)N1CCC[C@H]1C(=O)N[C@@H](Cc1ccccc1)C(=O)O [compound 24, Alacepril]", "label.value": "middle interval"}
{"molecule": "CC(=O)O[C@]1(C(C)=O)CC[C@H]2[C@@H]3C=C(Cl)C4=CC(=O)CC[C@]4(C)[C@H]3CC[C@@]21C [Comparative Example 3-2, Chlormadinone acetate]", "label.value": "low interval"}
{"molecule": "NC(N)=Nc1nc(CSCCC(N)=NS(N)(=O)=O)cs1 [Comparative Example 17, Famotidine]", "label.value": "middle interval"}
{"molecule": "O=C1NC(=O)C(c2ccccc2)(c2ccccc2)N1 [compound 21, Phenyloin]", "label.value": "low interval"}
